stoichiometry N reference
target: factor inhibiting HIF-1 (FIH-1), full-length (human, UniProt Q9NWT6 1-349); experiment: ITC
Sequence (Q9NWT6 whole entry): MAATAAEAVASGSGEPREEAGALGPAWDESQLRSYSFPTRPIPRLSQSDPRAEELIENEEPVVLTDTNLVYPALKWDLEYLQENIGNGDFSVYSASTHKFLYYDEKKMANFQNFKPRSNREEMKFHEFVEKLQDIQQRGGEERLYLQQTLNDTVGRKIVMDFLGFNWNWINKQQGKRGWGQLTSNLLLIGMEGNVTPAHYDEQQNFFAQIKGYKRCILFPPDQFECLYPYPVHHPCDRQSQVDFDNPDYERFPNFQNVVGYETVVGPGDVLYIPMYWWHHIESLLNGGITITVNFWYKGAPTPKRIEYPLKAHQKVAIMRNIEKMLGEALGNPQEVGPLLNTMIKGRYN

Answered examples (2):
Mint3NTmut (domain or fragment) MDFPTISRSPSGPPAMDLEGPRDILVPSEDLTPDSQWDPMPGGPGSLSRMELDESSLQELVQQFEALPGDLVGPSPGGAPCPLHIATGHGLASQEIADAHAAASAAAGRDDLLGLLHCEECPPSQTGPEEPLEPAPRLLQPPEDPDEDSDSPEWVEGASAEQEGSRSSSSSPEPWLETVPLVTPEEPPAGAQSPETLASYPAPQEVPGPCDHED    ~0.5
Mint3 fragment (1-92) (domain or fragment) MDFPTISRSPSGPPAMDLEGPRDILVPSEDLTPDSQWDPMPGGPGSLSRMELDESSLQELVQQFEALPGDLVGPSPGGAPCPLHIATGHGLA    ~0.5

Which stoichiometry N is listed for Mint3 (1-117) (domain or fragment) MDFPTISRSPSGPPAMDLEGPRDILVPSEDLTPDSQWDPMPGGPGSLSRMELDESSLQELVQQFEALPGDLVGPSPGGAPCPLHIATGHGLASQEIADAHGLLSAEAGRDDLLGLLH ? ~0.5
